- Target under test: hemoglobin (Homo sapiens, UniProt P68871+P69905)
- Sequence (P69905 2-142): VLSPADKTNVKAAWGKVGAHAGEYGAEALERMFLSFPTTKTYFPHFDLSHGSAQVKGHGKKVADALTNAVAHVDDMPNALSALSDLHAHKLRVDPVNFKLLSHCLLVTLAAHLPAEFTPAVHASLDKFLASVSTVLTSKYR
- Sequence (P68871 2-147): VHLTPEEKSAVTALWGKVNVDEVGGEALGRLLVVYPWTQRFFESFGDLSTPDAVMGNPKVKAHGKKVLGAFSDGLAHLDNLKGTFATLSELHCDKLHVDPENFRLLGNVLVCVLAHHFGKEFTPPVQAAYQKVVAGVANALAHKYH
- Measurement description: Stability of hemoglobin in samples preserved at 37° C. in preservation solution containing no haptoglobin, Hb measured by latex agglutination method (Examples 8, 9 and Table 10)
- Measurement context: Feces 3; 38 h at 37° C.; no phenylboronic acid, sugar 100 mmol/L
Experimental readout: Hb concentration (µg/L)
Use µg/L as the unit, but write only the number.

Q: # lookup: Hb concentration of O=C(CO)[C@@H](O)[C@H](O)[C@H](O)CO
Result: 0

Q: # lookup: Hb concentration of OC[C@H]1O[C@H](O[C@H]2O[C@H](CO)[C@@H](O)[C@H](O)[C@H]2O)[C@H](O)[C@@H](O)[C@@H]1O
Result: 0

Q: # lookup: Hb concentration of OC[C@H]1O[C@@](CO)(O[C@H]2O[C@H](CO)[C@@H](O)[C@H](O)[C@H]2O)[C@@H](O)[C@@H]1O
Result: 0

Q: # lookup: Hb concentration of OC[C@@H](O)[C@@H](O)[C@H](O)[C@@H](O)CO
Result: 1

Each recorded value in this set is attributed to patent US12215140B2.
